Assay: Cytotoxicity against HeLaM cells
Format: cell-based, M-HeLa
Conditions: human
recordedEndpoint: CC50 (µM)
Express your answer in µM, writing the number without its unit.

Notebook: CNS(=O)(=O)CCCN1CCC(Nc2nc3c(C)cccc3n2Cc2nc(C)ccc2O)CC1 , CC50 read as 79.4

Entry Cc1cc(C)c2nc(NCCCN3CCN(C)CC3)n(Cc3nc(C)ccc3O)c2c1 , CC50 reported as 50.1

Entry CC(=O)NCCNc1nc2c(C)cc(C)cc2n1Cc1nc(C)ccc1O — recorded CC50 = 12.6

Looking up Cc1cc(C)c2nc(NCCCN3CCOCC3)n(Cc3nc(C)ccc3O)c2c1 , I see its CC50 listed as 50.1

get_value(item= CNCCCNc1nc2c(C)cc(C)cc2n1Cc1nc(C)ccc1O , readout=CC50) returns 50.1

Please fill in: CC50 reported for Cc1ccc(O)c(Cn2c(NC3CCN(C)CC3)nc3c(C)cccc32)n1 = 50.1

# CC50 (compound: Cc1cc(C)c2nc(NCCCO)n(Cc3nc(C)ccc3O)c2c1 ) is 63.1

The recorded CC50 for Cc1cc(C)c2nc(NCC(O)CO)n(Cc3nc(C)ccc3O)c2c1 (stereo not drawn) is 50.1

In plain terms, Cc1ccc(O)c(Cn2c(NC3CCN(CCN4CCCC4)CC3)nc3c(C)cccc32)n1 has a documented CC50 of 39.8
